// reported TGI for each item listed
Tested on: UO-31 renal
Test: NCI tumour cell line growth inhibition, 48 h

MOLECULE: CC(C)c1[nH]nc(C(N)=O)c1N=NN(C)C
TGI: 2.19 µM
//
MOLECULE: CC(=O)Nc1c(S(=O)(=O)c2ccccc2)c(C)c(C)n1CCN(C)C
TGI: > 100 µM
//
MOLECULE: N#Cc1cccc2c1Nc1ccccc1S2
TGI: > 100 µM
//
MOLECULE: CC(N)C(Cc1ccc(Cl)cc1)c1ccc(Cl)cc1 (stereo unspecified)
TGI: 20.9 µM
//
MOLECULE: CC[C@H](C)[C@H]1NC(=O)[C@@H](NC(=O)[C@@H](CC(C)C)N(C)C(=O)C2CCCN2C(=O)[C@H](C)O)[C@@H](C)OC(=O)[C@H](Cc2ccc(OC)cc2)N(C)C(=O)[C@@H]2CCCN2C(=O)[C@H](CCCCNC(=O)OCc2ccccc2)NC(=O)[C@H](C)C(=O)[C@H](C(C)C)OC(=O)C[C@@H]1O (stereo partly specified)
TGI: > 25 µM

Next molecule, please.
// TGI lookup, molecule = COc1cc(OC)c2c(c1)OC(c1ccccc1)CC2=O (stereo unspecified) , result: > 10 µM
